- Test system: HUVEC
- testMethodNotes: Antiinvasive activity in VEGF-stimulated HUVEC assessed as cellular migration after 24 hrs by fluorescence assay relative to control
- Format: functional, Homo sapiens
- Set-up: concentration or dose not given beside the values
Recorded Activity by entry
Provide only the numeric value, understood in %.

Just so you know, measured Activity for CCOC(=O)CNC(=O)C(=O)C(COCc1ccccc1)NC(=O)[C@H](CC1CCCCC1)NC(=O)C1=CC(=O)CC(C)(C)O1 (some centres not stated) came out at 89

Just so you know, measured Activity for CCOC(=O)CNC(=O)C(=O)C(COCc1ccccc1)NC(=O)[C@H](CC1CCCCC1)NC(=O)c1cccc(C)c1[N+](=O)[O-] (some centres not stated) came out at 83

Just so you know, measured Activity for CCOC(=O)CNC(=O)C(=O)C(COCc1ccccc1)NC(=O)[C@H](CC1CCCCC1)NC(=O)c1ccc(OC(C)=O)cc1 (some centres not stated) came out at 27

====

Recorded Activity by entry
- studySystem: Procathepsin L (Homo sapiens)
- testMethodNotes: Inhibition of cathepsin L assessed as proteolytic activity at 40 nM by fluorimetric assay
- Set-up: scale not given: the % may be the effect or the level left
Provide only the numeric value, understood in %.

• CCOC(=O)CNC(=O)C(=O)C(COCc1ccccc1)NC(=O)[C@H](CC1CCCCC1)NC(=O)N1CCOCC1 (some centres not stated) = 3.2
• CCOC(=O)CNC(=O)C(=O)C(COCc1ccccc1)NC(=O)[C@H](CC1CCCCC1)NC(=O)c1ccc(C(=O)OC)c(N)c1 (some centres not stated) = 8
• CCOC(=O)CNC(=O)C(=O)C(COCc1ccccc1)NC(=O)[C@H](CC1CCCCC1)NC(=O)c1cc(SC)ccc1Cl (some centres not stated) = 17.4
• CCOC(=O)CNC(=O)C(=O)C(COCc1ccccc1)NC(=O)[C@H](CC1CCCCC1)NC(=O)c1ccc(C(=O)OC)c(NC(=O)OC(C)(C)C)c1 (some centres not stated) = 8.7
• N#C[C@H](COCc1ccccc1)NC(=O)[C@H](CC1CCCCC1)NC(=O)N1CCOCC1 = 44.8

Just so you know, measured Activity for CCOC(=O)CNC(=O)C(=O)C(COCc1ccccc1)NC(=O)[C@H](CC1CCCCC1)NC(=O)c1ccc(OC(C)=O)cc1 (some centres not stated) came out at 0.4

Just so you know, measured Activity for CCOC(=O)CNC(=O)C(=O)C(COCc1ccccc1)NC(=O)[C@H](CC1CCCCC1)NC(=O)c1cccc([N+](=O)[O-])c1 (some centres not stated) came out at 2.9

====

- Tested on: HUVEC
- testMethodNotes: Antiinvasive activity in VEGF-stimulated HUVEC assessed as cellular migration after 24 hrs by fluorescence assay relative to control
- Format: functional, Homo sapiens
- Set-up: concentration or dose not given beside the values
attributeMeasured: Activity (%)
Provide only the numeric value, understood in %.

Consider the reported Activity for these compounds:
* CCOC(=O)CNC(=O)C(=O)C(COCc1ccccc1)NC(=O)[C@H](CC1CCCCC1)NC(=O)c1cccc([N+](=O)[O-])c1 (some centres not stated) | 39
* CCOC(=O)CNC(=O)C(=O)[C@H](COCc1ccccc1)NC(=O)[C@H](CC(C)C)NC(=O)c1cccc2c1C(=O)c1ccccc1-2 | 55
* CCOC(=O)CNC(=O)C(=O)C(COCc1ccccc1)NC(=O)[C@H](CC1CCCCC1)NC(=O)c1cncc(C)n1 (some centres not stated) | 62
* CCOC(=O)CNC(=O)C(=O)C(COCc1ccccc1)NC(=O)[C@H](CC1CCCCC1)NC(=O)Cc1cccs1 (some centres not stated) | 59

Just so you know, measured Activity for CCOC(=O)CNC(=O)C(=O)C(COCc1ccccc1)NC(=O)[C@H](CC1CCCCC1)NC(=O)c1cc(Cl)ccc1[N+](=O)[O-] (some centres not stated) came out at 68

Just so you know, measured Activity for CCOC(=O)CNC(=O)C(=O)[C@H](COCc1ccccc1)NC(=O)[C@H](CC1CCCCC1)NC(=O)c1cc(Br)ccc1N came out at 69

Just so you know, measured Activity for CCOC(=O)CNC(=O)C(=O)C(COCc1ccccc1)NC(=O)[C@H](CC1CCCCC1)NC(=O)/C=C/c1cc(OC)ccc1OC (some centres not stated) came out at 59

====

- studySystem: UniProt:P25774
- testMethodNotes: Inhibition of human recombinant cathepsin S expressed in Escherichia coli BL21 (DE3) after 10 mins by fluorescence assay
Recorded pIC50 by entry
Scale: pIC50 equals -log10([C]), with [C] in mol/L.

Consider the reported pIC50 for these molecules:
• CCOC(=O)CNC(=O)C(=O)C(COCc1ccccc1)NC(=O)[C@H](CC1CCCCC1)NC(=O)c1cccc(F)c1F (stereo partly drawn) = 8.23
• CCOC(=O)CNC(=O)C(=O)[C@H](COCc1ccccc1)NC(=O)[C@H](CC1CCCCC1)NC(=O)c1cc(Br)ccc1N = 8.21
• CCOC(=O)CNC(=O)C(=O)C(COCc1ccccc1)NC(=O)[C@H](CC1CCCCC1)NC(=O)c1ccc(Cl)c(NC(=O)OC(C)(C)C)c1 (stereo partly drawn) = 7.80
• CCOC(=O)CNC(=O)C(=O)C(COCc1ccccc1)NC(=O)[C@H](CC1CCCCC1)NC(=O)c1ccc(Br)o1 (stereo partly drawn) = 8.64
• CCCCCC1OC(=O)C(C(=O)N[C@@H](CC2CCCCC2)C(=O)NC(COCc2ccccc2)C(=O)C(=O)NCC(=O)OC)=CC1C (stereo partly drawn) = 7.37
• CCOC(=O)CNC(=O)C(=O)C(COCc1ccccc1)NC(=O)[C@H](CC1CCCCC1)NC(=O)c1ccc(C)cc1 (stereo partly drawn) = 8.21

Please find the next molecule below.
Just so you know, measured pIC50 for CCOC(=O)CNC(=O)C(=O)C(COCc1ccccc1)NC(=O)[C@H](CC1CCCCC1)NC(=O)c1ccc(C(=O)OC)c(NC(=O)OC(C)(C)C)c1 (stereo partly drawn) came out at 7.31

====

- studySystem: Cathepsin S (Homo sapiens, UniProt P25774)
- Sequence (P25774 whole entry): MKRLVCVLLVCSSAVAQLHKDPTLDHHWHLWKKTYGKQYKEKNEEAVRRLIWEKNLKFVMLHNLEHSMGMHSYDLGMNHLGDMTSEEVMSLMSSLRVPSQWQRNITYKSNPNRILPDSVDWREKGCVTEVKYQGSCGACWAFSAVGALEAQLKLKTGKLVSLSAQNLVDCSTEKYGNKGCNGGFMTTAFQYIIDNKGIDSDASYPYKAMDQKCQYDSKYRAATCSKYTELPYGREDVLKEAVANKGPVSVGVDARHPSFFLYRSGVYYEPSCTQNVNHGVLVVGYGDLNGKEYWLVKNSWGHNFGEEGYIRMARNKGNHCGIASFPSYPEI
- testMethodNotes: Inhibition of human recombinant cathepsin S expressed in Escherichia coli BL21 (DE3) after 10 mins by fluorescence assay
Recorded IC50 by entry
Provide only the numeric value, understood in nM.

Consider the reported IC50 for these compounds:
- CCOC(=O)CNC(=O)C(=O)C(COCc1ccccc1)NC(=O)[C@H](CC1CCCCC1)NC(=O)c1ccc(C(=O)OC)c(N)c1 (some centres undefined): 5.8
- CCOC(=O)CNC(=O)C(=O)C(COCc1ccccc1)NC(=O)[C@H](CC1CCCCC1)NC(=O)c1ccc(Cl)c(N)c1 (some centres undefined): 2.1

Just so you know, measured IC50 for CCOC(=O)CNC(=O)C(=O)C(COCc1ccccc1)NC(=O)[C@H](CC1CCCCC1)NC(=O)c1cc(Cl)cc([N+](=O)[O-])c1 (some centres undefined) came out at 22.8

====

Recorded Activity by entry
- testMethodNotes: Antiinvasive activity in human CL1-5 cells assessed as cellular migration after 24 hrs by fluorescence assay relative to control
- Assay type: functional
- Design: concentration or dose not given beside the values
Provide only the numeric value, understood in %.

- CCOC(=O)CNC(=O)C(=O)C(COCc1ccccc1)NC(=O)[C@H](CC1CCCCC1)NC(=O)c1cncc(C)n1 (some centres not stated): 60

Just so you know, measured Activity for CCOC(=O)CNC(=O)C(=O)C(COCc1ccccc1)NC(=O)[C@H](CC1CCCCC1)NC(=O)c1cc(Br)ccc1NC(=O)OC(C)(C)C (some centres not stated) came out at 76

Just so you know, measured Activity for CCOC(=O)CNC(=O)C(=O)C(COCc1ccccc1)NC(=O)[C@H](CC1CCCCC1)NC(=O)C1(C)CC1 (some centres not stated) came out at 101

Just so you know, measured Activity for CCOC(=O)CNC(=O)C(=O)C(COCc1ccccc1)NC(=O)[C@H](CC1CCCCC1)NC(=O)c1ccc(C)cc1 (some centres not stated) came out at 55

Just so you know, measured Activity for CCOC(=O)CNC(=O)C(=O)C(COCc1ccccc1)NC(=O)[C@H](CC1CCCCC1)NC(=O)Cc1cccc2ccccc12 (some centres not stated) came out at 41

Just so you know, measured Activity for CCOC(=O)CNC(=O)C(=O)C(COCc1ccccc1)NC(=O)[C@H](CC1CCCCC1)NC(=O)c1cc2ccccc2n1C (some centres not stated) came out at 69

Just so you know, measured Activity for CCOC(=O)CNC(=O)C(=O)[C@H](COCc1ccccc1)NC(=O)[C@H](CC1CCCCC1)NC(=O)C(=O)c1cccs1 came out at 56

====

- Tested on: HUVEC
- testMethodNotes: Antiinvasive activity in VEGF-stimulated HUVEC assessed as cellular migration after 24 hrs by fluorescence assay relative to control
- Format: functional, Homo sapiens
- Set-up: concentration or dose not given beside the values
attributeMeasured: Activity (%)
Provide only the numeric value, understood in %.

Consider the reported Activity for these compounds:
* CCOC(=O)CNC(=O)C(=O)C(COCc1ccccc1)NC(=O)[C@H](CC1CCCCC1)NC(=O)c1cccc(F)c1F (stereo not given in full) | 107
* CCOC(=O)CNC(=O)C(=O)C(COCc1ccccc1)NC(=O)[C@H](CC1CCCCC1)NC(=O)c1cc(Cl)cc([N+](=O)[O-])c1 (stereo not given in full) | 73

Just so you know, measured Activity for CCOC(=O)CNC(=O)C(=O)C(COCc1ccccc1)NC(=O)[C@H](CC1CCCCC1)NC(=O)c1ccc(Cl)c(N)c1 (stereo not given in full) came out at 46

Just so you know, measured Activity for CCOC(=O)CNC(=O)C(=O)C(COCc1ccccc1)NC(=O)[C@H](CC1CCCCC1)NC(=O)c1cc(OC)ccc1[N+](=O)[O-] (stereo not given in full) came out at 98

Just so you know, measured Activity for CCOC(=O)CNC(=O)C(=O)C(COCc1ccccc1)NC(=O)[C@H](CC1CCCCC1)NC(=O)c1ccc(C)cc1 (stereo not given in full) came out at 55

Just so you know, measured Activity for CCOC(=O)CNC(=O)C(=O)C(COCc1ccccc1)NC(=O)[C@H](CC1CCCCC1)NC(=O)c1cc(Br)ccc1NC(=O)OC(C)(C)C (stereo not given in full) came out at 86

Just so you know, measured Activity for CCOC(=O)CNC(=O)C(=O)[C@H](COCc1ccccc1)NC(=O)[C@H](CC1CCCCC1)NC(=O)c1cc(F)ccc1F came out at 34

Just so you know, measured Activity for CCOC(=O)CNC(=O)C(=O)C(COCc1ccccc1)NC(=O)[C@H](CC1CCCCC1)NC(=O)c1ccc(C(=O)OC)c(N)c1 (stereo not given in full) came out at 49

Just so you know, measured Activity for CCOC(=O)CNC(=O)C(=O)C(COCc1ccccc1)NC(=O)[C@H](CC1CCCCC1)NC(=O)c1ccc(C(=O)OC)c(NC(=O)OC(C)(C)C)c1 (stereo not given in full) came out at 82

Just so you know, measured Activity for CCOC(=O)CNC(=O)C(=O)C(COCc1ccccc1)NC(=O)[C@H](CC1CCCCC1)NC(=O)c1cc2ccccc2n1C (stereo not given in full) came out at 55

Just so you know, measured Activity for CCOC(=O)CNC(=O)C(=O)C(COCc1ccccc1)NC(=O)[C@H](CC1CCCCC1)NC(=O)C1(C)CC1 (stereo not given in full) came out at 95
